Experiment: in vitro
Conditions: human, HEK293T cells
Description: Cytotoxicity against HEK293T cells assessed as cell viability at 5.6 uM by CellTiter-Glo assay relative to control
Non-standard residues stand in square brackets, D forms with d. Residues, ends and D or L forms follow the SMILES beside them. *: point of attachment. X1 = O=C(OCCCS*)Oc1ccc2nc(C3=N[C@@H](C(=O)O)CS3)sc2c1; Mpa = O=C(O)CCS
Recorded viability at 5.6 µM by entry
Lab book: enter the figure in %, no units written.

{"Molecule": "CC(C)C[C@H](NC(=O)[C@H](CCCCN)NC(=O)[C@H](Cc1c[nH]c2ccccc12)NC(=O)[C@H](CCCNC(=N)N)NC(=O)[C@H](CCCCN)NC(=O)[C@H](CC(C)C)NC(=O)[C@@H](NC(=O)CCSSCCCOC(=O)Oc1ccc2nc(C3=N[C@@H](C(=O)O)CS3)sc2c1)C(C)C)C(=O)N[C@@H](Cc1ccccc1)C(=O)N[C@@H](CC(N)=O)C(=O)N[C@@H](CCCCN)C(N)=O ([Mpa](X1)VLKRWKLFNK-NH2)", "Unit abbreviation": "%", "viability at 5.6 µM": 98.5}

Ask: Could you please provide reported viability at 5.6 µM for CC(C)C[C@H](NC(=O)[C@H](CCCCN)NC(=O)[C@H](Cc1c[nH]c2ccccc12)NC(=O)CCSSCCCOC(=O)Oc1ccc2nc(C3=N[C@@H](C(=O)O)CS3)sc2c1)C(=O)N[C@@H](Cc1ccccc1)C(=O)N[C@@H](CC(N)=O)C(=O)N[C@@H](CCCCN)C(=O)N[C@@H](CCC(N)=O)C(=O)N[C@@H](CCC(=O)O)C(=O)N[C@@H](Cc1c[nH]c2ccccc12)C(=O)N[C@H](C(N)=O)[C@@H](C)O ([Mpa](X1)WKLFNKQEWT-NH2) ? Thanks!
Result: 99.6
